- Assay Procedure: in vivo
- Condition: CD1 nude, mouse, 0.5 nmol/mouse, total radioactivity, Stomach uptake
Measure Name: tissue uptake at 48 h (%ID/g)
Numbers only, in %ID/g.

Inquiry: Which tissue uptake at 48 h value is on record for Cc1ccc(CCCC(=O)NCCOCCOCCOCCOCCC(=O)NCCCC[C@H](NC(=O)CN2CCN(CC(=O)O)CCN(CC(=O)O)CCN(CC(=O)O)CC2)C(=O)N[C@@H](CC(=O)O)C(=O)N[C@@H](CC2CCCCC2)C(=O)N[C@@H](Cc2ccccc2)C(=O)N[C@H](CO)C(=O)N[C@H](CCCNC(=N)N)C(=O)N[C@@H](Cc2ccc(O)cc2)C(=O)N[C@@H](CC(C)C)C(=O)N[C@@H](Cc2c[nH]c3ccccc23)C(=O)N[C@@H](CO)C(N)=O)cc1 [[^177Lu]Lu-uPAR-11, metal not drawn] ?
Reply text: 0.09
